Measured log2 ratio of Biotin-Ahx-Ub-VS probe labelling by item
# TESTED_TARGET: USP47 (UniProt Q96K76)
# Sequence (Q96K76 whole entry, the tested form may be a part): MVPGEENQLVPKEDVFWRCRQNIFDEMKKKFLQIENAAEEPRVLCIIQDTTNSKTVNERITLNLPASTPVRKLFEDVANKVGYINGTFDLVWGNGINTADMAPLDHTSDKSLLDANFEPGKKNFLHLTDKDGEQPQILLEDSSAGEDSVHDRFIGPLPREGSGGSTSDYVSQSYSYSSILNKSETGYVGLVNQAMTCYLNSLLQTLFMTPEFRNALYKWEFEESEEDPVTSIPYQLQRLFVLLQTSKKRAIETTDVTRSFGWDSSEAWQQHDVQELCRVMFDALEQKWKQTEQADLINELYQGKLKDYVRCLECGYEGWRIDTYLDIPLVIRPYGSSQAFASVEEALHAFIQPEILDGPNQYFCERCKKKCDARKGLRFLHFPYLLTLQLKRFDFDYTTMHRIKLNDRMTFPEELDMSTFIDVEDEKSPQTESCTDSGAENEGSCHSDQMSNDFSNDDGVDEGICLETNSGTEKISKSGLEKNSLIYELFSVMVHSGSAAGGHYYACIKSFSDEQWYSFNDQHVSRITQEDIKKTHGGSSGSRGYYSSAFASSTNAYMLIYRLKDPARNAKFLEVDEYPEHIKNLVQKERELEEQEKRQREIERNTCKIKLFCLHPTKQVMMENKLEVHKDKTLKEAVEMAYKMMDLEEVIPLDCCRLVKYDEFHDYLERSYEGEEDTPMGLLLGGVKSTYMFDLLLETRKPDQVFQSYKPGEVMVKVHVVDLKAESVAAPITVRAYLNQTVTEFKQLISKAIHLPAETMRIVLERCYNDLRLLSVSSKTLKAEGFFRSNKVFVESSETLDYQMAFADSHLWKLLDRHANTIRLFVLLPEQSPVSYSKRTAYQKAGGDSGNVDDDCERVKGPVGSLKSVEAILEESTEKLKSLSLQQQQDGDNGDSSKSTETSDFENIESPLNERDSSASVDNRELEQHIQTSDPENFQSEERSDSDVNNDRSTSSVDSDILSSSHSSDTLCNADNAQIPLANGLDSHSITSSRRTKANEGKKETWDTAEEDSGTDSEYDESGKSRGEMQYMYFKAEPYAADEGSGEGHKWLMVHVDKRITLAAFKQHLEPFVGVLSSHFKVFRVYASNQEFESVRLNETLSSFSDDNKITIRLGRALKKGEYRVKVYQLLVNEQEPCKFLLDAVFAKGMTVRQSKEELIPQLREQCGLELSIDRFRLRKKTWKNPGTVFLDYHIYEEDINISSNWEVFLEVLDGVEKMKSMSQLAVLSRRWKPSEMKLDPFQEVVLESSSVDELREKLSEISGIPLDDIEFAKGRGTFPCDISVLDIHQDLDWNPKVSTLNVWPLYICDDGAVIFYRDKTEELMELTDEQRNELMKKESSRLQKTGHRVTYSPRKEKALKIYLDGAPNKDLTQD
# PROCEDURE_DETAILS: log2 ratio of Biotin-Ahx-Ub-VS probe labelling (fragment/DMSO); higher = less target engagement (more negative = stronger competition), active = hit call of the paper (q ≤ 0.05, log2 ratio ≤ -1)
# CONDITION: compound concentration: 200 uM; treatment time: 3 h
Keep it simple and answer with nothing but the number.

>>> value_reported("O=C(CCl)NCCc1ccc2c(c1)OCCO2")
0.109
>>> value_reported("O=C(CCl)NCc1cccc(F)c1")
-0.193
>>> value_reported("Cc1ccc(CC(CO)CNC(=O)CCl)cc1 (configuration not stated)")
-0.102
>>> value_reported("CCC(NC(=O)CCl)c1ccc(Cl)cc1 (configuration not stated)")
-0.558
>>> value_reported("Cc1ccc(CNC(=O)CCl)nc1C.Cl")
0.076
>>> value_reported("CN(C)S(=O)(=O)c1ccccc1CNC(=O)CCl")
-0.336
>>> value_reported("Cc1nc(CN2CCCN(C(=O)CCl)CC2)no1.Cl")
-0.095
>>> value_reported("CC(NC(=O)CCl)c1cccc(Cl)c1 (configuration not stated)")
-0.252

Pending compound:
query: State measured log2 ratio of Biotin-Ahx-Ub-VS probe labelling of the compound NC(=O)C(Cc1ccccc1)NC(=O)CCl (configuration not stated) with USP47 (UniProt Q96K76).
result: -0.239

* * *

# TESTED_TARGET: YOD1 (UniProt Q5VVQ6)
# Sequence (Q5VVQ6 whole entry, the tested form may be a part): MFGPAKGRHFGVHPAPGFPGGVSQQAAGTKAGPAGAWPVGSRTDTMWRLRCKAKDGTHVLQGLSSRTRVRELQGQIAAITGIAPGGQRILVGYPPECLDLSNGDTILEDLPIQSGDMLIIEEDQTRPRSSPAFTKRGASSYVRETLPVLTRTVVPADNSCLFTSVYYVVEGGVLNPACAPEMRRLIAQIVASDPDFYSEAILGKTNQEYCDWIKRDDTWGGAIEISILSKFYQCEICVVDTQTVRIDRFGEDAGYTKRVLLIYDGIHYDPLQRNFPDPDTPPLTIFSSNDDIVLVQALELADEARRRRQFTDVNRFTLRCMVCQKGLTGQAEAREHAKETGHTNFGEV
# PROCEDURE_DETAILS: log2 ratio of Biotin-Ahx-Ub-VS probe labelling (fragment/DMSO); higher = less target engagement (more negative = stronger competition), active = hit call of the paper (q ≤ 0.05, log2 ratio ≤ -1)
# CONDITION: compound concentration: 200 uM; treatment time: 3 h
Below is a list of entries, each paired with its recorded log2 ratio of Biotin-Ahx-Ub-VS probe labelling value.
Could you keep your reply to the number by itself?

Reference set, count: 3
>>> value_reported("O=C(CCl)N1CCC(S(=O)(=O)c2ccc(F)cc2)CC1")
0.119
>>> value_reported("Cl.O=C(CCl)N1CCC(n2nc3ccccc3n2)CC1")
-0.0827
>>> value_reported("CCN(Cc1ccc(C#N)cc1F)C(=O)CCl")
-0.251

Next up:
query: Hello, please tell me recorded log2 ratio of Biotin-Ahx-Ub-VS probe labelling for this one: CC(NC(=O)CCl)c1cc2n(n1)CCCC2.Cl (configuration not stated)
result: -0.00538

* * *

# TESTED_TARGET: UniProt O00487
# Sequence (O00487 whole entry, the tested form may be a part): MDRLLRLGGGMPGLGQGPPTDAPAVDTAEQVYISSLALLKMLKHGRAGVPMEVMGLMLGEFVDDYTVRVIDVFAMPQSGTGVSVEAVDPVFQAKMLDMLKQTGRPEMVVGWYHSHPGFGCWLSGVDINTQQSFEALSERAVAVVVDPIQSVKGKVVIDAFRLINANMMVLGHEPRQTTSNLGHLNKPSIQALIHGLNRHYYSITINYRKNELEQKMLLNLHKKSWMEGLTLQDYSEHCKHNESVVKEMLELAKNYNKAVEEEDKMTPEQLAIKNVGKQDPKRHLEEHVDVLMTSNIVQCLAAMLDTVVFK
# PROCEDURE_DETAILS: log2 ratio of Biotin-Ahx-Ub-VS probe labelling (fragment/DMSO); higher = less target engagement (more negative = stronger competition), active = hit call of the paper (q ≤ 0.05, log2 ratio ≤ -1)
# CONDITION: compound concentration: 200 uM; treatment time: 3 h
Short version: log2 ratio of Biotin-Ahx-Ub-VS probe labelling at least -0.02 is True, less is False.

>>> discrete_label("Cc1nc(CN2CCCN(C(=O)CCl)CC2)no1.Cl")
"True"
>>> discrete_label("O=C(CCl)Nc1ccc(Cl)c(F)c1")
"False"
>>> discrete_label("Cl.O=C(CCl)NC1(c2ncccn2)CCC1")
"True"
>>> discrete_label("C[C@@H](NC(=O)CCl)c1cccc(C#N)c1")
"True"

Lab note: next compound to report on.
query: Hi team, for Cc1nc(-c2cccc(NC(=O)CCl)c2)cs1 , is the recorded log2 ratio of Biotin-Ahx-Ub-VS probe labelling at or above -0.02?
result: False

* * *

# TESTED_TARGET: EIF3F (UniProt O00303)
# Sequence (O00303 whole entry, the tested form may be a part): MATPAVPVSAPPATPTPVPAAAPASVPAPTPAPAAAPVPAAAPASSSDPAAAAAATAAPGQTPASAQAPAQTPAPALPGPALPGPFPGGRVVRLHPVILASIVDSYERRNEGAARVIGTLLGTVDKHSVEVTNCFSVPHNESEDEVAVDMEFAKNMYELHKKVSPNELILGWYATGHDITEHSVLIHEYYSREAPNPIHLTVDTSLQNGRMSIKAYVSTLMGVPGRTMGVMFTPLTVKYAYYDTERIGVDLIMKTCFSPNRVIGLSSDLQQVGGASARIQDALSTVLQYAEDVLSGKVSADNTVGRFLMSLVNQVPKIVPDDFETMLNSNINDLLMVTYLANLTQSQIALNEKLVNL
# PROCEDURE_DETAILS: log2 ratio of Biotin-Ahx-Ub-VS probe labelling (fragment/DMSO); higher = less target engagement (more negative = stronger competition), active = hit call of the paper (q ≤ 0.05, log2 ratio ≤ -1)
# CONDITION: compound concentration: 200 uM; treatment time: 3 h
Classification field. Basis: log2 ratio of Biotin-Ahx-Ub-VS probe labelling. Definitions: bucket 1 (below -0.2), bucket 2 (-0.2 to below 0.007), bucket 3 (0.007 or more)

Reference set, count: 5
>>> discrete_label("Cc1ccc(CC(CO)CNC(=O)CCl)cc1 (configuration not stated)")
"bucket 3"
>>> discrete_label("C/C(=C\\CNC(=O)CCl)c1cnn(C)c1.Cl")
"bucket 1"
>>> discrete_label("Cc1nc(CN2CCCN(C(=O)CCl)CC2)no1.Cl")
"bucket 1"
>>> discrete_label("O=C(CCl)N1CCOCC1C1CC1 (configuration not stated)")
"bucket 1"
>>> discrete_label("Cc1ncc2c(n1)CCN(C(=O)CCl)C2")
"bucket 2"

query: Band of Cc1n[nH]c(=O)c2c(NC(=O)CCl)oc(C)c12 ?
result: bucket 3

query: Dear colleague, I would appreciate it if you could identify the bin for Cc1cc(Cl)ccc1NC(=O)CCl and reply at your convenience.
result: bucket 3

query: Kindly identify the class of O=C(CCl)N1c2ccccc2NC(=O)C12CCCC2 .
result: bucket 2

query: // bin(item) where item = O=C(CCl)NC1CCOc2ccccc21 (configuration not stated)
result: bucket 1

query: Class for Cl.Cn1nc2c(c1CNC(=O)CCl)CCCC2 ?
result: bucket 1

query: // bin(item) where item = O=C(CCl)N1CC2(CCOCC2)C1
result: bucket 3

query: Please let me know in which category the item Cc1ccc2nnc(CNC(=O)CCl)n2c1 belongs.
result: bucket 2

* * *

# TESTED_TARGET: USP38 (UniProt Q8NB14)
# Sequence (whole entry): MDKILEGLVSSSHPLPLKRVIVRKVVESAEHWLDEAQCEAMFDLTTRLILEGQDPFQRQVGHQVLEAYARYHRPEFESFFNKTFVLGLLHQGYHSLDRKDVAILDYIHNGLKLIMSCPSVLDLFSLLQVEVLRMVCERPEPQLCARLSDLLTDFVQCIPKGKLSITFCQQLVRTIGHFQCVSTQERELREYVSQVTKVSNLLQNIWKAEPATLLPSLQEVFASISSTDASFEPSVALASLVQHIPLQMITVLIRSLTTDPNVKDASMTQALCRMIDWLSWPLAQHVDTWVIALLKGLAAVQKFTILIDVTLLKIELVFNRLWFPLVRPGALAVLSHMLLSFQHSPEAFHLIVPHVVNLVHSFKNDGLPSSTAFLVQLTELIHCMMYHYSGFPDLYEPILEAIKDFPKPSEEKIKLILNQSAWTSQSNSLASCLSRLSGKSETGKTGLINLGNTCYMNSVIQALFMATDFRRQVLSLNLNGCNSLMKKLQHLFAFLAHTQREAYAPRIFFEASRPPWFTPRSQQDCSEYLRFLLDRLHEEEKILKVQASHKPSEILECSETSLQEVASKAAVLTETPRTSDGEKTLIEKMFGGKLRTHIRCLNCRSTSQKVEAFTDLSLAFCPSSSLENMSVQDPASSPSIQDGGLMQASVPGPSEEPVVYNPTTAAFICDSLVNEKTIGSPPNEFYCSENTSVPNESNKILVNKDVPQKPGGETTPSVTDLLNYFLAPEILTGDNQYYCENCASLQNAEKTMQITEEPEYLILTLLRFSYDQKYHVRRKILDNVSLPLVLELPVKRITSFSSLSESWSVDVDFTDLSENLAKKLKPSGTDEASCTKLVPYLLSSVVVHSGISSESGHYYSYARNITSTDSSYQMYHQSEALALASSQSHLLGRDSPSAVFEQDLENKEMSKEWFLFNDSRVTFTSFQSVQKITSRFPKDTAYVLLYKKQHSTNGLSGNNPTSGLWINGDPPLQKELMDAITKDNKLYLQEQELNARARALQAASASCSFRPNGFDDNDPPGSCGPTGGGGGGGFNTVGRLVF
# PROCEDURE_DETAILS: log2 ratio of Biotin-Ahx-Ub-VS probe labelling (fragment/DMSO); higher = less target engagement (more negative = stronger competition), active = hit call of the paper (q ≤ 0.05, log2 ratio ≤ -1)
# CONDITION: compound concentration: 200 uM; treatment time: 3 h
READOUT_NAME: log2 ratio of Biotin-Ahx-Ub-VS probe labelling
Please reply with the value in numeric form only.

Some entries whose results are on file:
>>> value_reported("CN(C(=O)CCl)c1nc2ccccc2s1")
-0.124
>>> value_reported("O=C(CCl)N1CCCCCC1c1ncon1 (configuration not stated)")
0.0218

query: Fill in: log2 ratio of Biotin-Ahx-Ub-VS probe labelling on USP38 (UniProt Q8NB14), entry O=C(CCl)N[C@H]1CC[C@@H](CO)CC1
result: -0.651

query: Enter log2 ratio of Biotin-Ahx-Ub-VS probe labelling (test system USP38 (UniProt Q8NB14)) for CCCn1nccc1NC(=O)CCl
result: -0.241

query: Please report the measured log2 ratio of Biotin-Ahx-Ub-VS probe labelling for O=C(CCl)N1CCOCCC1c1ccccc1 (configuration not stated) tested on USP38 (UniProt Q8NB14).
result: 0.104

query: Give measured log2 ratio of Biotin-Ahx-Ub-VS probe labelling for O=C(CCl)N1CCOC2(CCC2)CC1 (USP38 (UniProt Q8NB14)).
result: -0.056

query: Recall the reported log2 ratio of Biotin-Ahx-Ub-VS probe labelling of Cc1cccc(N2CCC(NC(=O)CCl)C2=O)c1 (configuration not stated) on USP38 (UniProt Q8NB14) and write it down.
result: -0.169
